- ASSAY OVERVIEW: Cytotoxicity against human GS4.1 cells assessed as induction of cell death
- Format: cell-based
Sorting guide: entries reporting CC50 beneath 30 µM go in the YES pile, the rest go in the NO pile.

Field: example entries. Status: answers known.
COMPOUND	CLASS LABEL
COc1ccc2c(OCC[C@@H]3NC(=O)N(C)CCCC/C=C\[C@@H]4C[C@@]4(C(=O)NS(=O)(=O)C4CC4)NC3=O)cc(-c3nc(C(C)C)cs3)nc2c1Cl	NO
COc1ccc2c(OCC[C@@H]3NC(=O)N(C)CCCC/C=C\[C@@H]4C[C@@]4(C(=O)NS(=O)(=O)C4(C)CC4)NC3=O)cc(-n3ccc(C(C)C)n3)nc2c1Cl	NO
COc1ccc2c(OCC[C@@H]3NC(=O)N(C)CCCC/C=C\[C@@H]4C[C@@]4(C(=O)NS(=O)(=O)C4CC4)NC3=O)cc(-c3ccccc3)nc2c1	NO
COc1ccc2c(OCC[C@@H]3NC(=O)N(C)CCCCC/C=C\[C@@H]4C[C@@]4(C(=O)NS(=O)(=O)C4CC4)NC3=O)cc(-c3ccccc3)nc2c1	NO
COc1ccc2c(OCC[C@@H]3NC(=O)N(C)CCCC/C=C\[C@@H]4C[C@@]4(C(=O)NS(=O)(=O)C4(C)CC4)NC3=O)cc(-c3nc(C(C)C)cs3)nc2c1C	NO
COc1ccc2c(OCC[C@@H]3NC(=O)N(C)CCCC/C=C\[C@@H]4C[C@@]4(C(=O)NS(=O)(=O)C4(C)CC4)NC3=O)cc(-n3ccc(C(C)C)n3)nc2c1C	YES

(Q) In plain terms, does C#CC1(S(=O)(=O)NC(=O)[C@@]23C[C@H]2/C=C\CCCCN(C)C(=O)N[C@@H](CCOc2cc(-c4nc(C(C)C)cs4)nc4c(Cl)c(OC)ccc24)C(=O)N3)CC1 come in under 30 µM for CC50?
(A) YES

(Q) In plain terms, does CCn1cc(-c2cc(OCC[C@@H]3NC(=O)N(C)CCCC/C=C\[C@@H]4C[C@@]4(C(=O)NS(=O)(=O)C4(C)CC4)NC3=O)c3ccc(OC)c(C)c3n2)cn1 come in under 30 µM for CC50?
(A) NO

(Q) In plain terms, does COc1ccc2c(O[C@@H]3C[C@H]4C(=O)N[C@]5(C(=O)O)C[C@H]5/C=C\CCCCC[C@H](NC(=O)OC5CCCC5)C(=O)N4C3)cc(-c3csc(NC(C)C)n3)nc2c1 [CILUPREVIR] come in under 30 µM for CC50?
(A) YES

(Q) In plain terms, does COc1ccc2c(OCC[C@@H]3NC(=O)N(C)CCCC/C=C\[C@@H]4C[C@@]4(C(=O)NS(=O)(=O)N4CCOCC4)NC3=O)cc(-c3nc(C(C)C)cs3)nc2c1Cl come in under 30 µM for CC50?
(A) YES

(Q) In plain terms, does COc1ccc2c(OCC[C@@H]3NC(=O)N(C)CCCC/C=C\[C@@H]4C[C@@]4(C(=O)NS(=O)(=O)N4CCC(F)(F)C4)NC3=O)cc(-c3nc(C(C)C)cs3)nc2c1Cl come in under 30 µM for CC50?
(A) NO

###

- ASSAY OVERVIEW: Intrinsic clearance in Cynomologus monkey liver microsomes incubated for 2 hrs
- Type: ADME, Macaca fascicularis
- MEASUREMENT PARAMETERS: cynomolgus monkey, read-out: CLH
Consider the following compounds; for each one, report its microsomal CLint.
One number for each entry, in µL/min/mg.

SMILES STRING	ENDPOINT UNIT	microsomal CLint
COc1ccc2c(OCC[C@@H]3NC(=O)N(C)CCCC/C=C\[C@@H]4C[C@@]4(C(=O)NS(=O)(=O)C4CC4)NC3=O)cc(-c3nc(C(C)C)cs3)nc2c1Cl	µL/min/mg	124

Now look at this entry.
(Q) Complete the entry with microsomal CLint for COc1ccc2c(OCC[C@@H]3NC(=O)N(C)CCCC/C=C\[C@@H]4C[C@@]4(C(=O)NS(=O)(=O)C4(C)CC4)NC3=O)cc(-c3nc(C(C)C)cs3)nc2c1Cl
(A) 480

###

- Test system: Hepatitis C virus
- ASSAY OVERVIEW: Antiviral activity against HCV Con1 infected in human GS4.1 cells containing HCV Con1 subgenomic replicon assessed as reduction in NS5A protein expression by ELISA method
- Assay type: functional, cell-based, Hepacivirus hominis
- MEASUREMENT PARAMETERS: genotype 1b Con1
Sorting guide: entries reporting EC50 beneath 100 nM go in the YES pile, the rest go in the NO pile.

Field: example entries. Status: answers known.
SMILES STRING	TARGET UNDER TEST	CLASS LABEL
COc1ccc2c(OCC[C@@H]3NC(=O)N(C)CCCC/C=C\[C@@H]4C[C@@]4(C(=O)NS(=O)(=O)C4(C)CC4)NC3=O)cc(-n3ccc(C(C)C)n3)nc2c1C	Hepatitis C virus	YES
COc1ccc2c(OCC[C@@H]3NC(=O)N(C)CCCC/C=C\[C@@H]4C[C@@]4(C(=O)NS(=O)(=O)C4(C)CC4)NC3=O)cc(-c3csc(NC(C)C)n3)nc2c1	Hepatitis C virus	NO
COc1ccc2c(OCC[C@@H]3NC(=O)N(C)CCCC/C=C\[C@@H]4C[C@@]4(C(=O)NS(=O)(=O)C4CC4)NC3=O)cc(-c3ccccc3)nc2c1	Hepatitis C virus	NO
COc1ccc2c(OCC[C@@H]3NC(=O)N(C)CCCC/C=C\[C@@H]4C[C@@]4(C(=O)NS(=O)(=O)C4(C)CC4)NC3=O)cc(-n3ccc(C(F)(F)F)n3)nc2c1Cl	Hepatitis C virus	YES
CCCn1cc(-c2cc(OCC[C@@H]3NC(=O)N(C)CCCC/C=C\[C@@H]4C[C@@]4(C(=O)NS(=O)(=O)C4(C)CC4)NC3=O)c3ccc(OC)c(C)c3n2)cn1	Hepatitis C virus	NO

(Q) In plain terms, does COc1ccc2c(OCC[C@@H]3NC(=O)N(C)CCCC/C=C\[C@@H]4C[C@@]4(C(=O)NS(=O)(=O)C4(C)CC4)NC3=O)cc(-c3cc(C(F)(F)F)nn3C)nc2c1C come in under 100 nM for EC50?
(A) NO

(Q) In plain terms, does COc1ccc2c(OCC[C@@H]3NC(=O)N(C)CCCC/C=C\[C@@H]4C[C@@]4(C(=O)NS(=O)(=O)C4(C)CC4)NC3=O)cc(-c3nc(C(C)C)cs3)nc2c1F come in under 100 nM for EC50?
(A) NO

(Q) In plain terms, does COc1ccc2c(OCC[C@@H]3NC(=O)N(C)CCCC/C=C\[C@@H]4C[C@@]4(C(=O)NS(=O)(=O)C4(C)CC4)NC3=O)cc(-c3nc(C(C)C)cs3)nc2c1Br come in under 100 nM for EC50?
(A) YES

(Q) In plain terms, does COc1ccc2c(O[C@@H]3C[C@H]4C(=O)N[C@]5(C(=O)O)C[C@H]5/C=C\CCCCC[C@H](NC(=O)OC5CCCC5)C(=O)N4C3)cc(-c3csc(NC(C)C)n3)nc2c1 come in under 100 nM for EC50?
(A) YES

(Q) In plain terms, does COc1ccc2c(OCC[C@@H]3NC(=O)N(C)CCCC/C=C\[C@@H]4C[C@@]4(C(=O)NS(=O)(=O)C4CC4)NC3=O)cc(-c3nc(C(C)C)cs3)nc2c1Cl come in under 100 nM for EC50?
(A) YES

(Q) In plain terms, does COc1ccc2c(OCC[C@@H]3NC(=O)N(C)CCCC/C=C\[C@@H]4C[C@@]4(C(=O)NS(=O)(=O)C4(C)CC4)NC3=O)cc(-c3nc(C(C)C)cs3)nc2c1 come in under 100 nM for EC50?
(A) YES

###

- Tested on: Hepatitis C virus
- ASSAY OVERVIEW: Antiviral activity against HCV Con1 infected in human GS4.1 cells containing HCV Con1 subgenomic replicon assessed as reduction in NS5A protein expression by ELISA method
- Assay type: functional, cell-based, Hepacivirus hominis
- MEASUREMENT PARAMETERS: genotype 1b Con1
MEASUREMENT LABEL: pEC50
Give bare numbers, as −log10 of the molar value.

Below: 2 compounds and their reported pEC50.
SMILES STRING	TARGET UNDER TEST	pEC50
COc1ccc2c(OCC[C@@H]3NC(=O)N(C)CCCC/C=C\[C@@H]4C[C@@]4(C(=O)NS(=O)(=O)C4(C)CC4)NC3=O)cc(-c3nc(C(C)C)cs3)nc2c1C	Hepatitis C virus	7.07
COc1ccc2c(OCC[C@@H]3NC(=O)N(C)CCCCC/C=C\[C@@H]4C[C@@]4(C(=O)NS(=O)(=O)C4CC4)NC3=O)cc(-c3ccccc3)nc2c1	Hepatitis C virus	4.84

Now look at this entry.
(Q) Complete the entry with pEC50 for CCC1(S(=O)(=O)NC(=O)[C@@]23C[C@H]2/C=C\CCCCN(C)C(=O)N[C@@H](CCOc2cc(-c4nc(C(C)C)cs4)nc4c(Cl)c(OC)ccc24)C(=O)N3)CC1
(A) 7.05

Recorded values, source ChEMBL document CHEMBL3608234.
